# tested on: Thromboxane A2 receptor (Homo sapiens)
# Sequence (P21731 whole entry): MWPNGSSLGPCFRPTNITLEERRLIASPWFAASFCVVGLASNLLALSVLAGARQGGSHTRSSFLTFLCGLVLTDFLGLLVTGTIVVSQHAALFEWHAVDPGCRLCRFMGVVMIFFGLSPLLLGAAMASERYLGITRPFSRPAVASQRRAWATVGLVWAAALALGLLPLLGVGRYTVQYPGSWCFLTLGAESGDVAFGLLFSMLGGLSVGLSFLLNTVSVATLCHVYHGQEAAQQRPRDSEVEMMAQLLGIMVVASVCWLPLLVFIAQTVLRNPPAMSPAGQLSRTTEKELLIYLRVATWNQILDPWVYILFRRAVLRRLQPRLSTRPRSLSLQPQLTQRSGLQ
# method summary: Antagonist activity at human thromboxane A2 receptor beta over-expressed in HEK293 cells assessed as inhibition of U-46619-induced intracellular calcium mobilization mobilization by fluorescence assay
# Type: functional, cell-based
pIC50: −log10 of the molar value.
reported endpoint: pIC50

- CCCCCNC(=O)NS(=O)(=O)c1cc(C#N)ccc1Nc1ccc(C)cc1: 5.69
- Cc1ccc(Nc2ccc(C#N)cc2S(=O)(=O)NC(=O)NC(C)C)cc1: 5.37
- CC(C)NC(=O)NS(=O)(=O)c1cc(C#N)ccc1Oc1ccc(I)cc1: 5.02
- CCCCCNC(=O)NS(=O)(=O)c1cc(C#N)ccc1Oc1ccc(I)cc1: 5.02
- CCCCCNC(=O)NS(=O)(=O)c1cc(C#N)ccc1Oc1ccc(C)cc1: 6.20

P. Cc1ccccc1Nc1ccc(C#N)cc1S(=O)(=O)NC(=O)NC(C)(C)C
Q. CCCCCNC(=O)NS(=O)(=O)c1cc(C#N)ccc1Oc1cccc(C)c1
Exercise: compare P and Q ; which one has the greater pIC50? Respond with the label that goes with your answer.
Q

P. CCCCCNC(=O)NS(=O)(=O)c1cc(C#N)ccc1Nc1ccc(F)cc1
Q. Cc1cccc(Oc2ccc(C#N)cc2S(=O)(=O)NC(=O)NC(C)(C)C)c1
R. Cc1cccc(Nc2ccc(C#N)cc2S(=O)(=O)NC(=O)NC(C)(C)C)c1
Please list these in order of increasing pIC50. Thank you! List the labels in the requested order.
P, R, Q

* * *

# Species: Homo sapiens
# method summary: Selectivity index, ratio of IC50 for human thromboxane A2 receptor alpha to IC50 for human thromboxane A2 receptor beta
reported endpoint: Ratio IC50

Solved entries (count: 5):
- CCCCCNC(=O)NS(=O)(=O)c1cc(C#N)ccc1Oc1ccc(I)cc1: 1
- Cc1ccc(Nc2ccc(C#N)cc2S(=O)(=O)NC(=O)NC(C)C)cc1: 0.9
- CC(C)NC(=O)NS(=O)(=O)c1cc(C#N)ccc1Oc1ccc(Br)cc1: 1
- CCCCCNC(=O)NS(=O)(=O)c1cc(C#N)ccc1Nc1ccc(C)cc1: 0.5
- CC(C)(C)NC(=O)NS(=O)(=O)c1cc(C#N)ccc1Oc1ccc(I)cc1: 0.9

A. CCCCCNC(=O)NS(=O)(=O)c1cc(C#N)ccc1Oc1cccc(C)c1
B. Cc1cccc(Nc2ccc(C#N)cc2S(=O)(=O)NC(=O)NC(C)C)c1
Exercise: compare A and B ; which one has the greater Ratio IC50? Respond with the label that goes with your answer.
A

* * *

# Species: Homo sapiens
# method summary: Selectivity index, ratio of IC50 for human thromboxane A2 receptor alpha to IC50 for human thromboxane A2 receptor beta
reported endpoint: Ratio IC50

• CC(C)(C)NC(=O)NS(=O)(=O)c1cc(C#N)ccc1Oc1ccc(F)cc1 = 1.2
• CCCCCNC(=O)NS(=O)(=O)c1cc(C#N)ccc1Nc1cccc(C)c1 = 1.3
• CC(C)NC(=O)NS(=O)(=O)c1cc(C#N)ccc1Nc1ccc(F)cc1 = 1.04
• Cc1cccc(Oc2ccc(C#N)cc2S(=O)(=O)NC(=O)NC(C)C)c1 = 1.4
• CC(C)NC(=O)NS(=O)(=O)c1cc(C#N)ccc1Oc1ccc(I)cc1 = 1
• CC(C)(C)NC(=O)NS(=O)(=O)c1cc(C#N)ccc1Oc1ccc(Br)cc1 = 1.1
• CCCCCNC(=O)NS(=O)(=O)c1cc(C#N)ccc1Oc1ccc(Cl)cc1 = 0.9
• CCCCCNC(=O)NS(=O)(=O)c1cc(C#N)ccc1Oc1ccc(C)cc1 = 1.4
• CCCCCNC(=O)NS(=O)(=O)c1cc(C#N)ccc1Oc1ccc(F)cc1 = 0.9
• CCCCCNC(=O)NS(=O)(=O)c1cc(C#N)ccc1Oc1ccccc1C = 1.3
• Cc1ccc(Nc2ccc([N+](=O)[O-])cc2S(=O)(=O)NC(=O)NC(C)(C)C)cc1 = 1.1
• CC(C)NC(=O)NS(=O)(=O)c1cc(C#N)ccc1Oc1ccc(Cl)cc1 = 1.1
• CC(C)(C)NC(=O)NS(=O)(=O)c1cc(C#N)ccc1Oc1ccc(Cl)cc1 = 1.1
